Test: Stability of peptides in HepG2 whole cell lysate
Format: in vitro ADME
Conditions: human, HepG2 lysate, 20 mins, read-out: % intact peptide
Non-standard residues stand in square brackets, D forms with d. Residues, ends and D or L forms follow the SMILES beside them. Ala(7-MeO-coumarin-4-yl) = COc1ccc2c(C[C@H](N)C(=O)O)cc(=O)oc2c1
reportedProperty: remaining at 20 min, 20 μM (%)
Use % as the unit, but write only the number.

Need remaining at 20 min, 20 μM, item COc1ccc2c(C[C@H](NC(=O)[C@H](C)NC(=O)[C@H](CCCNC(=N)N)NC(=O)[C@H](Cc3ccccc3)NC(=O)[C@H](CC(C)C)NC(=O)[C@H](Cc3c[nH]cn3)NC(=O)[C@@H](N)Cc3cc(=O)oc4cc(OC)ccc34)C(=O)O)cc(=O)oc2c1 [R1A, μHLFRAμ] (H-[Ala(7-MeO-coumarin-4-yl)]HLFRA[Ala(7-MeO-coumarin-4-yl)]-OH)
21.7

Data provenance: paper PMC8901119
